Test system: Type III protein secretion of the chimeric SopE‘-’Bla polypeptide (SPI1 type III protein secretion system)
Test: Primary assay: Type III protein secretion of the chimeric SopE'-'Bla polypeptide by Salmonella enterica
Assay type: cell-based
Details: read-out: SopE IC50(μM)
Let's look at some compounds and their measured IC50.
Unit µM implied. Number only.

Compound | Value Units | IC50
O=C(N[C@H](COCc1ccccc1)C(=O)O)/C(=C\c1ccc(-c2ccccc2)cc1)NC(=O)c1ccc(C(F)(F)F)cc1 [Compound 24] | µM | 12.5
O=C(O)C(Cc1ccc(Cl)cc1)NC(=O)N(CCc1ccc(-c2ccccc2)cc1)Cc1cccc(C(F)(F)F)c1 (stereo not shown) [Compound 87] | µM | 1.5
O=C(NN(Cc1ccc(Oc2ccccc2)cc1)C(=O)N[C@@H](CSCc1ccccc1)C(=O)O)c1ccc(C(F)(F)F)cc1 [Compound 12] | µM | 12.5

Kindly review the next compound as well.
Exercise: IC50 for O=C(NCC1CCCO1)/C(=C\c1ccc(-c2ccccc2)cc1)NC(=O)c1ccc(C(F)(F)F)cc1 (stereo not shown) [Compound 2] ?
Solution: 69

###

Let's look at some compounds and their measured IC50.
Tested on: Type III protein secretion of the chimeric SopE‘-’Bla polypeptide (SPI1 type III protein secretion system)
Assay: Primary assay: Type III protein secretion of the chimeric SopE'-'Bla polypeptide by Salmonella enterica
Type: cell-based
Details: read-out: SopE IC50(μM)
Source text: Primary assay: Type III protein secretion of the chimeric SopE‘-’Bla polypeptide by Salmonella enterica. […] The SopE‘-’Bla recombinant polypeptide consists of two functionally distinct domains spliced together. […] It is capable of hydrolyzing nitrocefin resulting in a product whose accumulation can be monitored by colorimetric detection. […]
Unit µM implied. Number only.

Compound | Measurement
O=C(O)[C@H](COCc1ccccc1)NC(=O)N(CCc1ccc(-c2ccccc2)cc1)Cc1cccc(C(F)(F)F)c1 | 4

Exercise: IC50 for COc1cccc(C(=O)N/C(=C/c2ccc(Cl)c(Cl)c2)C(=O)NC(Cc2ccc(Cl)cc2)C(=O)O)c1 (stereo not shown) ?
Solution: 15.5

Exercise: O=C(NC(Cc1ccc(F)cc1)C(=O)O)/C(=C\c1cccc(C(F)(F)F)c1)NC(=O)c1ccc(-c2ccccc2)cc1 (stereo not shown) ?
Solution: 34.2

Exercise: O=C(N[C@@H](Cc1ccc(Cl)cc1)C(=O)O)/C(=C\c1cccc(C(F)(F)F)c1)NC(=O)c1cc2ccccc2o1 ?
Solution: 28.5

###

Let's look at some compounds and their measured IC50.
System: Type III protein secretion of the chimeric SopE‘-’Bla polypeptide (SPI1 type III protein secretion system)
Experiment: Primary assay: Type III protein secretion of the chimeric SopE'-'Bla polypeptide by Salmonella enterica
Format: cell-based
Conditions: read-out: SopE IC50(μM)
Unit µM implied. Number only.

Compound | Value Units | IC50
CN(C(=O)/C(=C\c1cccc(C(F)(F)F)c1)NC(=O)c1ccc(-c2ccccc2)cc1)[C@H](Cc1ccc(Cl)cc1)C(=O)O | µM | 15
O=C(N[C@@H](Cc1ccc(Cl)cc1)C(=O)O)/C(=C\c1ccc(Oc2ccccc2)cc1)NC(=O)c1ccc(C(F)(F)F)cc1 | µM | 4.9
O=C(N[C@@H](CSCc1ccccc1)C(=O)O)/C(=C\c1cccc(Oc2ccccc2)c1)NC(=O)c1ccc(Cl)cc1 | µM | 34.2
O=C(N[C@@H](CSCc1ccccc1)C(=O)O)/C(=C\c1cccc2ccccc12)NC(=O)c1ccc(C(F)(F)F)cc1 | µM | 30.3
O=C(NN(Cc1ccc(-c2ccccc2)cc1)C(=O)N[C@@H](CSCc1ccccc1)C(=O)O)c1ccc(C(F)(F)F)cc1 | µM | 10
O=C(NC(Cc1ccc(Cl)cc1)C(=O)O)/C(=C\c1ccc(Cl)c(C(F)(F)F)c1)CC(=O)c1ccc(-c2ccccc2)cc1 (stereo not drawn) | µM | 0.8
O=C(O)CCCCNC(=O)/C(=C\c1cccc(C(F)(F)F)c1)NC(=O)c1ccc(-c2ccccc2)cc1 | µM | 42
CC(C)(S)C(NC(=O)/C(=C\c1ccc(-c2ccccc2)cc1)NC(=O)c1ccc(-c2ccccc2)cc1)C(=O)O (stereo not drawn) | µM | 3

Exercise: IC50 for CC(C)(S)C(NC(=O)/C(=C\c1ccc(Cl)c(Cl)c1)NC(=O)c1ccccc1)C(=O)O (stereo not drawn) ?
Solution: 61.6

Exercise: O=C(NC(Cc1ccc(Cl)cc1)C(=O)O)/C(=C\c1cccc(C(F)(F)F)c1)CC(=O)c1ccc(-c2ccccc2)cc1 (stereo not drawn) ?
Solution: 1.1

Exercise: O=C(O)CCCCNC(=O)/C(=C\c1ccc(-c2ccccc2)cc1)NC(=O)c1ccc(C(F)(F)F)cc1 ?
Solution: 42

Exercise: O=C(N[C@@H](Cc1ccc(Cl)cc1)C(=O)O)/C(=C\c1ccc(Br)cc1)NC(=O)C1CCN(c2nccc(C(F)(F)F)n2)CC1 ?
Solution: 27.8

Exercise: CC(C)(S)C(NC(=O)/C(=C\c1ccc(Cl)c(Cl)c1)NC(=O)c1ccc(C(F)(F)F)cc1)C(=O)O (stereo not drawn) ?
Solution: 22.7

Exercise: O=C(N[C@H](COCc1ccccc1)C(=O)O)/C(=C\c1ccc(Br)cc1)NC(=O)C1CCN(c2nccc(C(F)(F)F)n2)CC1 ?
Solution: 38.5

Exercise: O=C(O)C[C@H](Cc1ccc(Cl)cc1)NC(=O)/C(=C\c1ccc(-c2ccccc2)cc1)NC(=O)c1ccc(C(F)(F)F)cc1 ?
Solution: 5.2

###

System: Type III-dependent secretion of ExoU by P. aeruginosa PA103
Experiment: Tertiary assay: Type III-dependent secretion of ExoU by P. aeruginosa PA103
Assay type: cell-based
Conditions: Pseudomonas aeruginosa, ExoU secreted into extracellular medium
Source text: Tertiary assay: inhibition of Type III protein secretion of effectors from a Pseudomonas aeruginosa system. Type III protein secretion is used by P. aeruginosa to secrete several essential virulence determinants. […] The amount of Type III-dependent secretion of ExoU by P. aeruginosa PA103 can be determined in a cell-based assay by quantification of the 73.9 kDa ExoU protein secreted into the extracellular medium. […]
Measurement Kind: pIC50
Interpret pIC50 as the negative base-10 log of the concentration measured in mol/L.

Compound | pIC50
O=C(NC(COCc1ccccc1)C(=O)O)/C(=C\c1ccc(Cl)cc1Cl)NC(=O)c1ccc(-c2ccccc2)cc1 (stereo not drawn) | 4.74
O=C(NC(Cc1ccc(Cl)cc1)C(=O)O)/C(=C\c1cccc(C(F)(F)F)c1)NC(=O)c1ccc(-c2ccccc2)cc1 (stereo not drawn) | 4.89

Kindly review the next compound as well.
Exercise: pIC50 for O=C(N[C@@H](CSCc1ccccc1)C(=O)O)/C(=C\c1cccc(Oc2ccc(Cl)cc2)c1)NC(=O)c1ccc(C(F)(F)F)cc1 ?
Solution: 4.88

###

Let's look at some compounds and their measured IC50.
System: Type III protein secretion of the chimeric SopE‘-’Bla polypeptide (SPI1 type III protein secretion system)
Experiment: Primary assay: Type III protein secretion of the chimeric SopE'-'Bla polypeptide by Salmonella enterica
Type: cell-based
Conditions: read-out: SopE IC50(μM)
Unit µM implied. Number only.

Compound | Value Units | IC50
CC(C)c1ccc(/C=C(/NC(=O)c2ccc(C(F)(F)F)cc2)C(=O)N[C@@H](COCc2ccccc2)C(=O)O)cc1 | µM | 34.8

Exercise: IC50 for O=C(NN(Cc1ccc(Cl)c(C(F)(F)F)c1)C(=O)NC(Cc1ccc(Cl)cc1)C(=O)O)c1ccc(-c2ccccc2)cc1 (stereo not shown) ?
Solution: 3.1

Exercise: O=C(N[C@@H](CSCc1ccccc1)C(=O)O)/C(=C\c1ccc2ccccc2c1)NC(=O)c1ccc(Br)cc1 ?
Solution: 81.6

Exercise: O=C(N[C@@H](Cc1ccc(Cl)cc1)C(=O)O)/C(=C\c1cccc(C(F)(F)F)c1)NC(=O)c1ccc(Cl)cc1 ?
Solution: 87

###

Tested on: Type III-dependent secretion of ExoU by P. aeruginosa PA103
Experiment: Tertiary assay: Type III-dependent secretion of ExoU by P. aeruginosa PA103
Type: cell-based
Settings: Pseudomonas aeruginosa, ExoU secreted into extracellular medium
Measurement Kind: IC50 (µM)
Unit µM implied. Number only.

Field: example entries. Status: answers known.
Compound | Measurement
O=C(N[C@@H](CSCc1ccccc1)C(=O)O)/C(=C\c1ccc(OCc2ccccc2)cc1)NC(=O)c1ccc(C(F)(F)F)cc1 [Compound 1] | 11.6
O=C(N[C@@H](CSCc1ccccc1)C(=O)O)/C(=C\c1ccc(Cl)c(Cl)c1)NC(=O)c1ccc(-c2ccccc2)cc1 [Compound 105] | 33
O=C(NC(COCc1ccccc1)C(=O)O)/C(=C\c1ccc(-c2ccccc2)cc1)NC(=O)c1ccc(C(F)(F)F)cc1 (centres unmarked) [Compound 133] | 100
O=C(N[C@H](COCc1ccccc1)C(=O)O)/C(=C\c1ccc(OC(F)(F)F)cc1)NC(=O)C1CCN(c2nccc(C(F)(F)F)n2)CC1 [Compound 83] | 84.9
CN(C(=O)/C(=C\c1cccc(C(F)(F)F)c1)NC(=O)c1ccc(-c2ccccc2)cc1)C(COCc1ccccc1)C(=O)O (centres unmarked) [Compound 53] | 46

Exercise: IC50 for O=C(N[C@@H](CSCc1ccccc1)C(=O)O)/C(=C\c1ccc(Oc2ccc(F)cc2)cc1)NC(=O)c1ccc(C(F)(F)F)cc1 [Compound 57] ?
Solution: 35

Exercise: O=C(N[C@@H](CSCc1ccccc1)C(=O)O)/C(=C\c1ccc(OC(F)(F)F)cc1)NC(=O)c1ccc(I)cc1 [Compound 22] ?
Solution: 47

Exercise: O=C(N[C@@H](CSCc1ccccc1)C(=O)O)/C(=C\c1ccc(Cl)cc1Cl)NC(=O)c1ccc(-c2ccccc2)cc1 [Compound 102] ?
Solution: 40

Exercise: O=C(N[C@@H](CSCc1ccccc1)C(=O)O)/C(=C\c1cccc(Oc2ccccc2)c1)NC(=O)c1ccc(I)cc1 [Compound 21] ?
Solution: 69

Exercise: O=C(N[C@H](COCc1ccccc1)C(=O)O)/C(=C\c1ccc(Cl)c(Cl)c1)NC(=O)c1ccc(-c2ccccc2)cc1 [Compound 56] ?
Solution: 20.2

Exercise: O=C(N[C@@H](CCSCc1ccccc1)C(=O)O)/C(=C\c1ccc(-c2ccccc2)cc1)NC(=O)c1ccc(C(F)(F)F)cc1 [Compound 7] ?
Solution: 31

Exercise: O=C(N[C@@H](CSCc1ccccc1)C(=O)O)/C(=C\c1cccc(OCc2ccccc2)c1)NC(=O)c1ccc(C(F)(F)F)cc1 [Compound 18] ?
Solution: 57

Exercise: O=C(N[C@@H](CSCc1ccccc1)C(=O)O)/C(=C\c1ccc(Oc2ccc(Cl)cc2)cc1)NC(=O)c1ccc(C(F)(F)F)cc1 [Compound 58] ?
Solution: 48.5

Exercise: O=C(N[C@@H](COCc1ccccc1)C(=O)O)/C(=C\c1ccc(Cl)c(Cl)c1)NC(=O)c1ccc(-c2ccccc2)cc1 [Compound 26] ?
Solution: 24

Exercise: O=C(N[C@@H](Cc1ccc(Cl)cc1)C(=O)O)/C(=C\c1cccc(C(F)(F)F)c1)NC(=O)c1ccc(Oc2ccccc2)cc1 [Compound 47] ?
Solution: 35.1

Exercise: O=C(N[C@@H](CSCc1ccccc1)C(=O)O)/C(=C\c1ccc(I)cc1)NC(=O)C1CCN(c2nccc(C(F)(F)F)n2)CC1 [Compound 76] ?
Solution: 56.7
